Target: T1, human LAG-3 expressed on cells (DO11.10 or HEK 293 cells over-expressing human LAG-3) (human, UniProt P18627 23-525)
T1 sequence: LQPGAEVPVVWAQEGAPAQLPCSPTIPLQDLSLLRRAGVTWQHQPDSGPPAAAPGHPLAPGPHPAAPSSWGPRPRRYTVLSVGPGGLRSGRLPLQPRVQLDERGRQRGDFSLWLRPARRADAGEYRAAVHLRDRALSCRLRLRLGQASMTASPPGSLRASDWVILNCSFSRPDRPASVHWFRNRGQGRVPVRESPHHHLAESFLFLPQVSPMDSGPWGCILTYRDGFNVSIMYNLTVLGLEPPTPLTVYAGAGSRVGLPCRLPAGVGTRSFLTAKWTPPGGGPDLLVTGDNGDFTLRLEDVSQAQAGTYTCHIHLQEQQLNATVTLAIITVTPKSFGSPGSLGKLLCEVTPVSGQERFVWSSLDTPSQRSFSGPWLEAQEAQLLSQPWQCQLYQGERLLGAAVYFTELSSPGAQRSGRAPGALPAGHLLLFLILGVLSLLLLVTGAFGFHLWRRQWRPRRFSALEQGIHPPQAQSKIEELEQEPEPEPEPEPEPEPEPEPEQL
Test: cell-based or functional assay
endpoint.name: EC50 of mIL-2 release, DO11.10 T cell activation assay (human LAG-3) (nM)
# unit: nM | format: bare number

Use the examples below as a reference point.
binder	value.observed
anti-human LAG-3 Fcab FS18-7-62 with truncated hinge and LALA mutation (designed binder) TCPPCPAPEAAGGPSVFLFPPKPKDTLMISRTPEVTCVVVDVSHEDPEVKFNWYVDGVEVHNAKTKPREEQYNSTYRVVSVLTVLHQDWLNGKEYKCKVSNKALPAPIEKTISKAKGQPREPQVYTLPPSWDEPWGEDVSLTCLVKGFYPSDIAVEWESNGIPEWNYKTTPPVLDSDGSFFLYSKLTVPYDRWVWPDEFSCSVMHEALHNHYTQKSLSLSPG	1.1
anti-human LAG-3 Fcab FS18-7-33 with truncated hinge and LALA mutation (designed binder) TCPPCPAPEAAGGPSVFLFPPKPKDTLMISRTPEVTCVVVDVSHEDPEVKFNWYVDGVEVHNAKTKPREEQYNSTYRVVSVLTVLHQDWLNGKEYKCKVSNKALPAPIEKTISKAKGQPREPQVYTLPPSWDEPWGEDVSLTCLVKGFYPSDIAVEWESNGQPEDNYKTTPPVLDSDGSFFLYSKLTVPYDRWVWPDEFSCSVMHEALHNHYTQKSLSLSPG	1.1

Here's the next entry for you.
Ask | Write down EC50 of mIL-2 release, DO11.10 T cell activation assay (human LAG-3) measured for item anti-human LAG-3 Fcab FS18-7-78 with truncated hinge and LALA mutation (designed binder) TCPPCPAPEAAGGPSVFLFPPKPKDTLMISRTPEVTCVVVDVSHEDPEVKFNWYVDGVEVHNAKTKPREEQYNSTYRVVSVLTVLHQDWLNGKEYKCKVSNKALPAPIEKTISKAKGQPREPQVYTLPPSWDEPWGEDVSLTCLVKGFYPSDIAVEWESNGYKEENYKTTPPVLDSDGSFFLYSKLTVPYDRWVWPDEFSCSVMHEALHNHYTQKSLSLSPG
Reply | 1
